Test system: AMP-activated protein kinase (AMPK)
method notes: ADP Quest assay for AMPK activators
Format: biochemical
Design: key: fold AMPK activation at 30 μM activator vs none
settings: fold of AMPK activation to phosphorylate SAMS peptide without and with an activator at the concentration of 30 μM
test readout: E30

compound | assayed target | E30
CC1(C)CC(c2ccccc2NS(=O)(=O)c2ccccc2F)Nc2ccc(Cl)cc21 (stereo not shown) [Example-21] | AMP-activated protein kinase (AMPK) | 1.75

(1) CCS(=O)(=O)Nc1ccccc1C1CC(C)(C)c2cc(C(F)(F)F)ccc2N1 (stereo not shown) [Example-46]
(2) CC1(C)CC(c2ccccc2NS(=O)(=O)c2ccc(F)cc2)Nc2ccc(C(=O)O)cc21 (stereo not shown) [Example-40]
(3) CC(C)(Nc1cccc(C2CC(C)(C)c3cccc(C(=O)O)c3N2)c1)C(=O)O (stereo not shown) [Example-15]
Data request: Would you mind ranking these compounds by ascending E30? Return the labels ranked in the requested order, please.
Data returned: 1, 3, 2

====

Tested on: AMP-activated protein kinase (AMPK)
method notes: ADP Quest assay for AMPK activators
Type: biochemical
Design: key: fold AMPK activation at 30 μM activator vs none
settings: fold of AMPK activation to phosphorylate SAMS peptide without and with an activator at the concentration of 30 μM
test readout: E30

Below, each entry is followed by its recorded E30 result.
compound | test readout | test value
CC1(C)CC(c2ccccc2NC(=O)c2ccc(F)cc2)Nc2ccc(C(=O)O)cc21 (stereo not shown) [Example-32] | E30 | 1.31
Cc1cc(C#N)cc2c1NC(c1cccc(NC(C)(C)C(=O)O)c1)CC2(C)C (stereo not shown) [Example-12] | E30 | 2.37

(P) CC1(C)CC(c2cccc(NC3(C(=O)O)CC3)c2)Nc2c(C(=O)O)cccc21 (stereo not shown) [Example-5]
(Q) CC(C)(Nc1ccccc1C1CC(C)(C)c2cc(C#N)ccc2N1)C(=O)O (stereo not shown) [Example-20]
Data request: Smaller E30 value? Options are P and Q Identify your selection by its label.
Data returned: Q
(Q: 1.57, P: 2.44)

====

Test system: AMP-activated protein kinase (AMPK)
method notes: ADP Quest assay for AMPK activators
Format: biochemical
Design: key: fold AMPK activation at 30 μM activator vs none
settings: fold of AMPK activation to phosphorylate SAMS peptide without and with an activator at the concentration of 30 μM
test readout: E30

compound | assayed target | E30
CCS(=O)(=O)Nc1ccccc1C1CC(C)(C)c2cc(Cl)ccc2N1 (stereo not drawn) | AMP-activated protein kinase (AMPK) | 1.89

(P) CCS(=O)(=O)Nc1ccccc1C1CC(C)(C)c2cc(C(=O)O)ccc2N1 (stereo not drawn)
(Q) CC1(C)CC(c2ccccc2NS(C)(=O)=O)Nc2ccc(C#N)cc21 (stereo not drawn)
Data request: Smaller E30 value? Options are P and Q Identify your selection by its label.
Data returned: Q

(A) CC1(C)CC(c2cccc(NC3(C(=O)O)CC3)c2)Nc2c(Cl)cc(C#N)cc21 (stereo not drawn)
(B) CC1(C)CC(c2ccccc2NS(=O)(=O)c2ccccc2F)Nc2ccc(C(=O)O)cc21 (stereo not drawn)
(C) CC1(C)CC(c2ccccc2NC(=O)c2ccccc2F)Nc2ccc(C(=O)O)cc21 (stereo not drawn)
Data request: Would you mind ranking these compounds by ascending E30? Return the labels ranked in the requested order, please.
Data returned: C, A, B
(C: 1.23, A: 1.79, B: 2.69)

(a) CC1(C)CC(c2cccc(NC3(C(=O)O)CC3)c2)Nc2ccc(C#N)cc21 (stereo not drawn)
(b) CC1(C)CC(c2ccccc2NS(=O)(=O)c2ccc(F)cc2)Nc2ccc(Cl)cc21 (stereo not drawn)
Data request: Smaller E30 value? Options are a and b Identify your selection by its label.
Data returned: b

====

Test system: AMP-activated protein kinase (AMPK)
method notes: ADP Quest assay for AMPK activators
Format: biochemical
Parameters: key: fold AMPK activation at 30 μM activator vs none
settings: fold of AMPK activation to phosphorylate SAMS peptide without and with an activator at the concentration of 30 μM
Protocol: This method evaluates AMP-activated protein kinase (AMPK) activity through detecting the accumulation of ADP product using an ADP Quest kit and determining the E30 values of the small molecular AMPK activators. ADP Quest kit (DiscoveRx, Fremont, Calif.) is stored at −20° C. before use. […] The reaction fluorescence signal is monitored and recorded on Envision in kinetic mode with the excitation wavelength of 530 nm and emission wavelength of 590 nm. […]
test readout: E30

compound | E30
CN1c2ccc(C(F)(F)F)cc2C(C)(C)CC1c1cccc(NC(C)(C)C(=O)O)c1 (centres unmarked) | 2.48
CN1c2ccc(C#N)cc2C(C)(C)CC1c1cccc(NC2(C(=O)O)CC2)c1 (centres unmarked) | 2.46
CC1(C)CC(c2ccccc2NC(=O)c2cccc(F)c2)Nc2ccc(C(=O)O)cc21 (centres unmarked) | 1.20
CC(C)(Nc1cccc(C2CC(C)(C)c3cc(C(F)(F)F)ccc3N2)c1)C(=O)O (centres unmarked) | 2.34
CC1(C)CC(c2cccc(NS(=O)(=O)c3ccc(F)cc3)c2)Nc2ccc(C(F)(F)F)cc21 (centres unmarked) | 1.34

(I) CC(C)S(=O)(=O)Nc1ccccc1C1CC(C)(C)c2cc(C#N)ccc2N1 (centres unmarked)
(II) CC(C)(Nc1cccc(C2CC(C)(C)c3cc(Cl)ccc3N2)c1)C(=O)O (centres unmarked)
Data request: Field: entry with larger E30 (options I / II ). Identify your selection by its label.
Data returned: II
(II: 3.30, I: 1.19)

(a) CC1(C)CC(c2ccccc2NS(=O)(=O)c2cccc(F)c2)Nc2ccc(C(F)(F)F)cc21 (centres unmarked)
(b) CC(C)(Nc1cccc(C2CC(C)(C)c3cc(C#N)cc(Cl)c3N2)c1)C(=O)O (centres unmarked)
(c) CC1(C)CC(c2ccccc2NS(C)(=O)=O)Nc2ccc(Cl)cc21 (centres unmarked)
Data request: Would you mind ranking these compounds by ascending E30? Return the labels ranked in the requested order, please.
Data returned: a, c, b
(a: 1.14, c: 1.70, b: 2.70)

====

Test system: AMP-activated protein kinase (AMPK)
method notes: ADP Quest assay for AMPK activators
Assay type: biochemical
Parameters: key: fold AMPK activation at 30 μM activator vs none
settings: fold of AMPK activation to phosphorylate SAMS peptide without and with an activator at the concentration of 30 μM
test readout: E30

Below, each entry is followed by its recorded E30 result.
compound | E30
CC1(C)CC(c2cccc(NC3(C(=O)O)CC3)c2)Nc2c(C(=O)O)cc(Cl)cc21 (centres unmarked) | 2.72
CC1(C)CC(c2ccccc2NS(=O)(=O)c2cccc(F)c2)Nc2ccc(Cl)cc21 (centres unmarked) | 1.78
CN1c2ccc(C(F)(F)F)cc2C(C)(C)CC1c1cccc(NC2(C(=O)O)CC2)c1 (centres unmarked) | 2.08

(I) CC1(C)CC(c2cccc(NC3(C(=O)O)CC3)c2)Nc2ccc(C(F)(F)F)cc21 (centres unmarked)
(II) CN1c2ccc(C#N)cc2C(C)(C)CC1c1cccc(NC(C)(C)C(=O)O)c1 (centres unmarked)
Data request: Smaller E30 value? Options are I and II Identify your selection by its label.
Data returned: I

====

Tested on: AMP-activated protein kinase (AMPK)
method notes: ADP Quest assay for AMPK activators
Type: biochemical
Design: key: fold AMPK activation at 30 μM activator vs none
settings: fold of AMPK activation to phosphorylate SAMS peptide without and with an activator at the concentration of 30 μM
test readout: E30

compound | assayed target | E30
CC1(C)CC(c2ccccc2NS(=O)(=O)c2ccccc2)Nc2ccc(C(=O)O)cc21 (stereo not drawn) | AMP-activated protein kinase (AMPK) | 2.63

(a) CC1(C)CC(c2ccccc2NC2(C(=O)O)CC2)Nc2ccc(C#N)cc21 (stereo not drawn)
(b) CC1(C)CC(c2ccccc2NS(=O)(=O)c2ccccc2F)Nc2ccc(C(F)(F)F)cc21 (stereo not drawn)
Data request: Smaller E30 value? Options are a and b Identify your selection by its label.
Data returned: b
(b: 1.15, a: 2.02)

====

System: AMP-activated protein kinase (AMPK)
method notes: ADP Quest assay for AMPK activators
Type: biochemical
Parameters: key: fold AMPK activation at 30 μM activator vs none
settings: fold of AMPK activation to phosphorylate SAMS peptide without and with an activator at the concentration of 30 μM
test readout: E30

Below, each entry is followed by its recorded E30 result.
molecule | test readout | test value
CC1(C)CC(c2ccccc2NS(=O)(=O)c2cccnc2)Nc2ccc(Cl)cc21 (stereo not shown) | E30 | 1.34
Cc1cc(F)cc2c1NC(c1cccc(NC(C)(C)C(=O)O)c1)CC2(C)C (stereo not shown) | E30 | 2.16
CC1(C)CC(c2ccccc2NS(=O)(=O)c2ccc(F)cc2)Nc2ccc(C(F)(F)F)cc21 (stereo not shown) | E30 | 1.15

(A) CC1(C)CC(c2cccc(NC3(C(=O)O)CC3)c2)Nc2ccc(Cl)cc21 (stereo not shown)
(B) CC(C)(Nc1ccccc1C1CC(C)(C)c2cc(Cl)ccc2N1)C(=O)O (stereo not shown)
Data request: Field: entry with larger E30 (options A / B ). Identify your selection by its label.
Data returned: A
